target: Adenosine receptor A3 (Homo sapiens)
Sequence (P0DMS8 whole entry, looked up): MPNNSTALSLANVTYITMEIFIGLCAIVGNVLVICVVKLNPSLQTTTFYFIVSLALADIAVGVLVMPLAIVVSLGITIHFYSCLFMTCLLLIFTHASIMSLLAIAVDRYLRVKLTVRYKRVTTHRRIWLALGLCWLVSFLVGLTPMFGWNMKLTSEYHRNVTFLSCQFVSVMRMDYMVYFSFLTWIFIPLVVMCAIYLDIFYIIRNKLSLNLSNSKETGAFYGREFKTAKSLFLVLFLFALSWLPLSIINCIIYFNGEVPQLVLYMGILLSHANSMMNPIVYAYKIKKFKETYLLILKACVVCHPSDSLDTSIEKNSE
Quantity: Ki (µM)

CC(=O)Oc1cccc2cc(-c3ccsc3)c(=O)oc12 : 1.82
O=c1oc2c(O)cccc2cc1-c1cccs1 : 1.43
CC(=O)Oc1ccc2cc(-c3cccs3)c(=O)oc2c1OC(C)=O : 22.5

P. CC(=O)Oc1cccc2cc(-c3cccs3)c(=O)oc12
Q. CC(=O)Oc1cccc2cc(-c3cc(Br)cs3)c(=O)oc12
Incoming: Hi, I'm comparing two records. Which one has the lower Ki, P or Q ? Your answer should be the label attached to the chosen record.
Outgoing: P
(P: 2.58 µM, Q: 4.08 µM)

====

Observed Ki values for Adenosine receptor A2a (Homo sapiens) are listed in what follows.
Quantity: Ki (µM)

CC(=O)Oc1cccc2cc(-c3cccs3)c(=O)oc12 : 18.8
O=c1oc2c(O)cccc2cc1-c1ccsc1 : 9.87
O=c1oc2c(O)c(O)ccc2cc1-c1cc(Br)cs1 : 12.2

P. CC(=O)Oc1ccc2cc(-c3ccsc3)c(=O)oc2c1OC(C)=O
Q. O=c1oc2c(O)c(O)ccc2cc1-c1cccs1
Incoming: Select one: P or Q . Criterion: greater recorded Ki. Your answer should be the label attached to the chosen record.
Outgoing: P

====

Items are presented alongside their recorded pKi.
Sequence of the target: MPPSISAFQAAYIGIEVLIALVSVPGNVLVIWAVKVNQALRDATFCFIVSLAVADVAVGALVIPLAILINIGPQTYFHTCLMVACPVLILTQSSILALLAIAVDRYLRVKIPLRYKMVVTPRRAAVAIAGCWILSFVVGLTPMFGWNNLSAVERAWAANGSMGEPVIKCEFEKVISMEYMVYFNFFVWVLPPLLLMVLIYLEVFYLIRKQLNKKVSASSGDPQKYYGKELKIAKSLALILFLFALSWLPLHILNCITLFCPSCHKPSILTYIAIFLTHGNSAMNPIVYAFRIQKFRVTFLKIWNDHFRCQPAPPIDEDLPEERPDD
pKi: −log10 of the molar value.

CC(=O)Oc1cccc2cc(-c3cc(Br)cs3)c(=O)oc12 : < 4.00
O=c1oc2c(O)cccc2cc1-c1ccsc1 : 5.23
O=c1oc2c(O)cccc2cc1-c1cc(Br)cs1 : < 4.00

// switching to the query compound
Incoming: Fill in: pKi of `CC(=O)Oc1ccc2cc(-c3cccs3)c(=O)oc2c1OC(C)=O` is ___
Outgoing: < 4.00
